SYSTEM: PKM2 (Homo sapiens, UniProt P14618)
Sequence (P14618 whole entry): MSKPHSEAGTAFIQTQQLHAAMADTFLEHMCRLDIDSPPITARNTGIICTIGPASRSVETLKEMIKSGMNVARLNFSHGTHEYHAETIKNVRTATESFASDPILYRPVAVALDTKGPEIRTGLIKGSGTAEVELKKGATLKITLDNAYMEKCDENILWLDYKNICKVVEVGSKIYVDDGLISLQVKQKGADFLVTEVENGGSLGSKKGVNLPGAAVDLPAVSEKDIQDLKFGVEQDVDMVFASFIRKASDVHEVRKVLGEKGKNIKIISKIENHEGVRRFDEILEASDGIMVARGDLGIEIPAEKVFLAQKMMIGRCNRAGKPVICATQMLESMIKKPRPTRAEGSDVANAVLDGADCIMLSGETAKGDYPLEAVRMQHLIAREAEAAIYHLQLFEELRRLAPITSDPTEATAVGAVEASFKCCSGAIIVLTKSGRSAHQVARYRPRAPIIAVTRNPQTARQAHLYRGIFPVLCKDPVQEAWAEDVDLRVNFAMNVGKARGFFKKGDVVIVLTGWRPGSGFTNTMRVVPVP
ASSAY_DETAILS: PKM2 activation biochemical assay (AC50 / max. response vs fructose 1,6-bisphosphate)
CONDITION_PARAMETERS: biochemical assay; read-out: PKM2 AC50
Answer each item with its documented AC50.
Report the figure in µM without appending any unit label.

Bench note, PKM2 (Homo sapiens, UniProt P14618): entry O=C(CCSC(=S)NCc1cccnc1)c1ccc(O)cc1 [PMA11] , its AC50 = 6.23

Bench note, PKM2 (Homo sapiens, UniProt P14618): entry CCN(CC)CCN(Cc1cc(Cl)ccc1Cl)C(=O)c1cc(C(F)(F)F)n[nH]1 [Compound 168] , its AC50 = 0.097

Bench note, PKM2 (Homo sapiens, UniProt P14618): entry Nc1cccc(Cl)c1CN(CC1CCN1)C(=O)c1cc(C(F)(F)F)n[nH]1 (stereo not drawn) [Compound 233] , its AC50 = 0.93

Bench note, PKM2 (Homo sapiens, UniProt P14618): entry CCN(CC)CCN(Cc1cc(N)ccc1Cl)C(=O)c1cc(C(F)(F)F)n[nH]1 [Compound 183] , its AC50 = 0.185

Bench note, PKM2 (Homo sapiens, UniProt P14618): entry O=C(c1cc(C(F)(F)F)n[nH]1)N(CCC1CC1)Cc1ccc(O)cc1F [Compound 140] , its AC50 = 0.032

Bench note, PKM2 (Homo sapiens, UniProt P14618): entry COC1CCCN(CCN(Cc2c(N)cccc2Cl)C(=O)c2cc(C(F)(F)F)n[nH]2)C1 (stereo not drawn) [Compound 237] , its AC50 = 0.183

Bench note, PKM2 (Homo sapiens, UniProt P14618): entry CCOCCCN(Cc1ccccc1Cl)C(=O)c1cc(C(F)(F)F)n[nH]1 [Compound 38] , its AC50 = 33

Bench note, PKM2 (Homo sapiens, UniProt P14618): entry CC1CCCN(CCN(Cc2ccccc2Cl)C(=O)c2cc(C(F)(F)F)n[nH]2)C1 (stereo not drawn) [Compound 191] , its AC50 = 0.029

Bench note, PKM2 (Homo sapiens, UniProt P14618): entry CCN(CC)CCN(Cc1c(Cl)cccc1Cl)C(=O)c1cc(C(F)(F)F)n[nH]1 [Compound 169] , its AC50 = 0.066

Bench note, PKM2 (Homo sapiens, UniProt P14618): entry O=C(c1cc(C(F)(F)F)n[nH]1)N(CCC1CCOC1)Cc1c(Cl)cccc1Cl (stereo not drawn) [Compound 33] , its AC50 = 4.03

Bench note, PKM2 (Homo sapiens, UniProt P14618): entry O=C(c1cc(C(F)(F)F)n[nH]1)N(CCN1CCCC1)Cc1ccc(Cl)cc1Cl [Compound 165] , its AC50 = 45

Bench note, PKM2 (Homo sapiens, UniProt P14618): entry O=C(c1cc(C(F)(F)F)n[nH]1)N(Cc1ccc(O)cc1F)C1CCCC1 [Compound 132] , its AC50 = 0.213

Bench note, PKM2 (Homo sapiens, UniProt P14618): entry CC1CCCN(CCN(Cc2cc(N)ccc2Cl)C(=O)c2cc(C(F)(F)F)n[nH]2)C1 (stereo not drawn) [Compound 200] , its AC50 = 0.13

Bench note, PKM2 (Homo sapiens, UniProt P14618): entry O=C(CCSC(=S)NCc1cccnc1)c1cc[nH]c1 [PMA35] , its AC50 = 4.34

Bench note, PKM2 (Homo sapiens, UniProt P14618): entry O=C(c1cc(C(F)(F)F)n[nH]1)N(Cc1cccc(F)c1O)CC1CCC1 [Compound 136] , its AC50 = 0.38

Bench note, PKM2 (Homo sapiens, UniProt P14618): entry O=C(c1cc(C(F)(F)F)n[nH]1)N(CCN1CCCCCC1)Cc1c(Cl)cccc1[N+](=O)[O-] [Compound 211] , its AC50 = 0.123

Bench note, PKM2 (Homo sapiens, UniProt P14618): entry Cn1cc(C(=O)c2cccc(Cl)c2Cl)cc1C(=O)NCNC(=O)c1cc(C(=O)c2cccc(Cl)c2Cl)cn1C [CA4] , its AC50 = 0.0032

Bench note, PKM2 (Homo sapiens, UniProt P14618): entry O=C(c1cc(C(F)(F)F)n[nH]1)N(CCC1CCS(=O)(=O)CC1)Cc1ccc(O)cc1F [Compound 87] , its AC50 = 0.064

Bench note, PKM2 (Homo sapiens, UniProt P14618): entry O=C(c1cc(C(F)(F)F)n[nH]1)N(CCC1CCSCC1)Cc1c(F)cccc1F [Compound 84] , its AC50 = 0.697

Bench note, PKM2 (Homo sapiens, UniProt P14618): entry Nc1cccc(Cl)c1CN(CCN1CCC(F)CC1)C(=O)c1cc(C(F)(F)F)n[nH]1 [Compound 238] , its AC50 = 0.116

Bench note, PKM2 (Homo sapiens, UniProt P14618): entry COc1cccc(NS(=O)(=O)c2cc3c(cc2Cl)NC(=O)CO3)c1 [PP20] , its AC50 = 0.153

Bench note, PKM2 (Homo sapiens, UniProt P14618): entry O=C(c1cc(C(F)(F)F)n[nH]1)N(CCN1CCCCCC1)Cc1ccc(O)cc1Cl [Compound 194] , its AC50 = 0.043

Bench note, PKM2 (Homo sapiens, UniProt P14618): entry O=C(c1cc(C(F)(F)F)n[nH]1)N(Cc1ccccc1F)C1CCOCC1 [Compound 22] , its AC50 = 1.52

Bench note, PKM2 (Homo sapiens, UniProt P14618): entry CCN(CC)CCN(Cc1ccccc1Cl)C(=O)c1[nH]nc(Cl)c1F [Compound 193] , its AC50 = 14

Bench note, PKM2 (Homo sapiens, UniProt P14618): entry Nc1cc(C(=O)N(Cc2ccc(O)cc2F)CC2CCC2)[nH]n1 [Compound 3] , its AC50 = 43.8

Bench note, PKM2 (Homo sapiens, UniProt P14618): entry O=C(c1cc(C(F)(F)F)n[nH]1)N(CCN1CCCCCC1)Cc1ccccc1F [Compound 197] , its AC50 = 0.063

Bench note, PKM2 (Homo sapiens, UniProt P14618): entry Nc1ccc(Cl)c(CN(CCN2CCCCCC2)C(=O)c2cc(C(F)(F)F)n[nH]2)c1 [Compound 196] , its AC50 = 0.099

Bench note, PKM2 (Homo sapiens, UniProt P14618): entry CO[C@H]1CC[C@H](N(Cc2ccccc2Cl)C(=O)c2cc(C(F)(F)F)n[nH]2)CC1 [Compound 52] , its AC50 = 0.879

Bench note, PKM2 (Homo sapiens, UniProt P14618): entry N#Cc1ccc(C(=O)CCSC(=S)NCc2cccnc2)cc1 [PMA12] , its AC50 = 4.39

Bench note, PKM2 (Homo sapiens, UniProt P14618): entry O=C(c1cc(Br)n[nH]1)N(CCC1CCSCC1)Cc1ccccc1F [Compound 82] , its AC50 = 1.37

Bench note, PKM2 (Homo sapiens, UniProt P14618): entry O=C(c1cc(C(F)(F)F)n[nH]1)N(CCC1CCS(=O)(=O)C1)Cc1cccc(F)c1F (stereo not drawn) [Compound 68] , its AC50 = 0.766
